protocol-summary: in vitro
condition: Klebsiella pneumoniae, not told, pH 7, Avg OM permeability coefficient (nm/s) ± SD, Cassette K. pneumoniae, efflux: with 25 mg/liter PAβN; two biological replicates
property: Papp

>>> recorded_value("C[C@H]1[C@H](NC(=O)/C(=N\\OC(C)(C)C(=O)O)c2csc(N)n2)C(=O)N1S(=O)(=O)O [Aztreonam, aztreonam]")
"< 0.3 ×10⁻⁶ cm/s"
>>> recorded_value("CC(C)(O/N=C(\\C(=O)N[C@@H]1C(=O)N2C(C(=O)[O-])=C(C[n+]3ccccc3)CS[C@H]12)c1csc(N)n1)C(=O)O [Ceftazidime, ceftazidime]")
"< 0.3 ×10⁻⁶ cm/s"
>>> recorded_value("CO/N=C(\\C(=O)N[C@@H]1C(=O)N2C(C(=O)[O-])=C(C[N+]3(C)CCCC3)CS[C@H]12)c1csc(N)n1 [Cefepime, cefepime]")
"< 0.3 ×10⁻⁶ cm/s"
